B1: Caulobacter ParB omega fusion; a variant is named by its letters at X, in order, B8GW30 (parent)
chain: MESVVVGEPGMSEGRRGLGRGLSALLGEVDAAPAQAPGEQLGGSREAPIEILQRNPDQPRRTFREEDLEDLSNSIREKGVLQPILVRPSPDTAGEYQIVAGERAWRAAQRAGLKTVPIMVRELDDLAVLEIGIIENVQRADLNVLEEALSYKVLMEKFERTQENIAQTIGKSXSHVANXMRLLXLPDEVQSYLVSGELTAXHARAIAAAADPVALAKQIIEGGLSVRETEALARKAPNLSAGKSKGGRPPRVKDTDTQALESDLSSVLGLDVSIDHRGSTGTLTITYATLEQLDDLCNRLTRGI

Variants of: B1
Test Protocol: one-hybrid fitness for binding NBS DNA (the Noc-binding site; scaled: cognate 1, non-cognate 0); higher = stronger binding
Condition Info: with NBS DNA site
In all, about 81,000 sequences were measured (“one-hybrid fitness for binding NBS DNA”: median about -0.1, highest 2% from about 0.36 on). For the sample, the highest values were picked, then their nearest neighbours and some sequences at random.
Parameter Measured: one-hybrid fitness for binding NBS DNA

Qu. Consider the variant VVKL and give its measured one-hybrid fitness for binding NBS DNA.
Ans. ≤ 0.2

Qu. Recorded one-hybrid fitness for binding NBS DNA of QTDW , please.
Ans. ≤ 0.2

Qu. What does the record list as one-hybrid fitness for binding NBS DNA for TLPW ?
Ans. ≤ 0.2

Qu. Return reported one-hybrid fitness for binding NBS DNA; argument: KTNH
Ans. ≤ 0.2

Qu. I am curious: what one-hybrid fitness for binding NBS DNA value has been reported for SGQC ?
Ans. ≤ 0.2

Qu. Request the reported one-hybrid fitness for binding NBS DNA associated with PSKH
Ans. ≤ 0.2

Qu. Endpoint output: one-hybrid fitness for binding NBS DNA of MRID . Value?
Ans. ≤ 0.2

Qu. # one-hybrid fitness for binding NBS DNA lookup, item QHKA
Ans. 0.597

Qu. # one-hybrid fitness for binding NBS DNA lookup, item PPHD
Ans. ≤ 0.2

Qu. # input variant: PRVW ; wanted: its one-hybrid fitness for binding NBS DNA
Ans. ≤ 0.2

Qu. Consider the variant QIKA and give its measured one-hybrid fitness for binding NBS DNA.
Ans. 0.351

Qu. Quick check: one-hybrid fitness for binding NBS DNA of RRIS ?
Ans. 0.661

Qu. If you can, please state the reported one-hybrid fitness for binding NBS DNA value of CPDH .
Ans. ≤ 0.2

Qu. Bench note: what one-hybrid fitness for binding NBS DNA did QPKA show?
Ans. ≤ 0.2

Qu. So what does the record say about one-hybrid fitness for binding NBS DNA for RMQR ?
Ans. 0.411

Qu. # lookup: one-hybrid fitness for binding NBS DNA of RASG
Ans. ≤ 0.2

Qu. Recorded one-hybrid fitness for binding NBS DNA for PRYW , please?
Ans. ≤ 0.2

Qu. Report one-hybrid fitness for binding NBS DNA for RCES please.
Ans. 0.207

Qu. Need one-hybrid fitness for binding NBS DNA of SDVV , thanks.
Ans. ≤ 0.2

Qu. I'd like to know its one-hybrid fitness for binding NBS DNA. The variant in question is YVSG
Ans. ≤ 0.2

Qu. Request the reported one-hybrid fitness for binding NBS DNA associated with RISE
Ans. ≤ 0.2

Qu. Fill in: one-hybrid fitness for binding NBS DNA of YSVR is ___
Ans. ≤ 0.2

Qu. Look up one-hybrid fitness for binding NBS DNA for this variant: QMKA
Ans. 0.596

Qu. Look at this variant and give its reported one-hybrid fitness for binding NBS DNA. RAST
Ans. 0.405

Qu. Reported one-hybrid fitness for binding NBS DNA for RRIN : what is it?
Ans. 0.206

Qu. Item ERQV has what recorded one-hybrid fitness for binding NBS DNA?
Ans. ≤ 0.2

Qu. Need one-hybrid fitness for binding NBS DNA, item QAVA
Ans. ≤ 0.2

Qu. Fill in: one-hybrid fitness for binding NBS DNA of ITQC is ___
Ans. ≤ 0.2

Qu. Returns the measured one-hybrid fitness for binding NBS DNA for the input variant. Input: QTRW
Ans. 0.417

Qu. Value lookup for one-hybrid fitness for binding NBS DNA; key = QHVA
Ans. ≤ 0.2

Qu. Look up one-hybrid fitness for binding NBS DNA for this variant: QTYW
Ans. ≤ 0.2

Qu. Can you look up the measured one-hybrid fitness for binding NBS DNA of QMIA for me?
Ans. ≤ 0.2

Qu. Query (variant): TSVC ; field requested: one-hybrid fitness for binding NBS DNA
Ans. ≤ 0.2

Qu. Quick one: one-hybrid fitness for binding NBS DNA for WWTD ?
Ans. ≤ 0.2

Qu. Any idea what its one-hybrid fitness for binding NBS DNA is? The variant is WVIG
Ans. ≤ 0.2
